assay_info: small-molecule binders of probe aInhba, primary screen, biochemical, small-molecule microarray, 635/667 nm fluorescence (AID 1148);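 further: score merges 667nm spot fluorescence with signal-to-noise for antibody binding to printed compounds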
measurement_conditions: higher = more signal
Please provide measured composite z-score for the entries that follow.
Give the value as a plain number.

Quick note, composite z-score for O=C1C=CC(=O)[C@@H]2CC(COc3ccccc3)=C3[C@@H](CCc4ccccc4)OB(O)C[C@@H]3[C@H]12 landed at -0.231

Quick note, composite z-score for O=C1O[C@@H](c2ccccc2)[C@@H](c2ccccc2)N2[C@@H](c3ccc(OCCO)cc3)[C@]3(C(=O)Nc4ccccc43)[C@@H](C(=O)Nc3nc4ccccc4s3)[C@H]12 landed at 0.289

Quick note, composite z-score for COc1ccc(C#Cc2ccc3c(c2)[C@]2(C(=O)N3)[C@H](c3ccc(O)cc3)N3[C@H](c4ccccc4)[C@H](c4ccccc4)OC(=O)[C@H]3[C@@H]2C(=O)N2CCCCCCC2)cc1 landed at 1.43

Quick note, composite z-score for Cc1ccc(S[C@]2(C(=O)NC3CC3)CC(=O)N(C3CCCCC3)[C@@H]2c2ccc(CO)cc2I)cc1 landed at -0.0375

Quick note, composite z-score for O=C1O[C@H](c2ccccc2)[C@H](c2ccccc2)N2[C@H]1[C@@H](C(=O)O)[C@]1(C(=O)Nc3ccc(C#CC4=CCCCC4)cc31)[C@H]2c1ccc(OCCO)cc1 landed at 0.201

Quick note, composite z-score for C=C[C@H](COC(C)=O)N(Cc1ccc(OC(C)=O)c(OC)c1)S(=O)(=O)c1ccc(Br)cc1 landed at 0.0219

Quick note, composite z-score for C=C(COC)C(=O)CC[C@@H](OC(=O)c1cccnc1)c1ccc(CO)o1 landed at -0.0675

----------
Please provide measured composite z-score for the entries that follow.
System: Human papillomavirus type 1a E7 protein (residues 1-88)
assay_info: HPV1a E7 small-molecule binders, primary screen, biochemical, small-molecule microarray, residues 1-88, 635 nm (AID 1129)
measurement_conditions: small-molecule microarray binding, fluorescence 635 nm; higher = more signal
Give the value as a plain number.

Observed composite z-score, Human papillomavirus type 1a E7 protein (residues 1-88), C=C[C@H](C)[C@@H](O)c1ccc(O)c2ccccc12 : -0.655

Observed composite z-score, Human papillomavirus type 1a E7 protein (residues 1-88), C=CCOC(=O)[C@H]1[C@@H]2C(=O)O[C@@H](c3ccccc3)[C@@H](c3ccccc3)N2[C@@H](c2ccc(OCCOC(=O)[C@@H]3C[C@@H]4C(=O)N5CCC[C@H]5C(=O)N4[C@@H]3c3ccc(O)cc3)cc2)[C@]12C(=O)Nc1ccccc12 : 1.18

Observed composite z-score, Human papillomavirus type 1a E7 protein (residues 1-88), [N-]=[N+]=NCc1ccccc1C[C@]1(C(=O)O)N=C(c2ccc(OCCCO)cc2)O[C@H]1c1ccccc1 : 1.13

Observed composite z-score, Human papillomavirus type 1a E7 protein (residues 1-88), C=CCNC(=O)[C@@H]1[C@H]2C(=O)O[C@H](c3ccccc3)[C@H](c3ccccc3)N2[C@H](c2ccc(OCCO)cc2)[C@@]12C(=O)Nc1ccccc12 : 1.22

Observed composite z-score, Human papillomavirus type 1a E7 protein (residues 1-88), Cc1cc(C)c(C(O)C2C=CC3C(=O)N(C)C(=O)C3N2Nc2ccccc2)c(C)c1 (configuration not stated) : 0.496

Observed composite z-score, Human papillomavirus type 1a E7 protein (residues 1-88), C=CCC(OC(C)=O)[C@@H]1[C@@H](N(Cc2cccc3ccccc23)C(=O)c2ccc(C)cc2)c2cc(OCCCO)ccc2N1C(=O)Cc1ccc(OC)cc1 (some centres not stated) : -0.0914

Observed composite z-score, Human papillomavirus type 1a E7 protein (residues 1-88), COC(=O)C[C@@H]1C[C@H](C)[C@]2(O1)C(=O)N(Cc1ccccc1)c1ccc(NC(C)=O)cc12 : 0.453

----------
Please provide measured z-score for the entries that follow.
assay_info: splicing luciferase reporter signal modulators, primary screen, spliceosome inhibition project, cell-based, HEK293, splice +/- reporter (AID 1101);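 further: HEK293 cells carrying a splicing-competent luciferase reporter gene; test concentration not given here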
measurement_conditions: luminescence, 24 h, higher = more signal, called active from +8 up or from −8 down
Give the value as a plain number.

Quick note, z-score for COCCOC(=O)N1C(=O)[C@@]2(c3cc(C#CC4=CCCCC4)ccc31)[C@H](C(=O)NC[C@H](O)c1ccccc1)[C@H]1C(=O)O[C@H](c3ccccc3)[C@H](c3ccccc3)N1[C@@H]2c1ccc(O)cc1 landed at -1.06

Quick note, z-score for COc1ccc(CCN2C(=O)[C@@]3(Cc4ccccc42)c2ccccc2C(=O)N(Cc2ccccc2Cl)[C@H]3c2ccc(CO)cc2)cc1 landed at -0.0194

Quick note, z-score for CN1CCC(CCCO)=CC1c1ccc(CN2CCCC2)cc1 (centres undefined) landed at 0.873

Quick note, z-score for COc1ccc(C(O)C2C=CC3C(=O)NC(=O)C3N2Nc2ccccn2)cc1OCc1ccccc1 (centres undefined) landed at 1.04

----------
assay_info: small-molecule binders of probe aNOTCH3, primary screen, biochemical, small-molecule microarray, 635/667 nm fluorescence (AID 1120);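 further: probe is a biotin-tagged antibody raised against NOTCH3 rather than NOTCH3 protein; score merges spot fluorescence near 667 nm with spot signal to noise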
measurement_conditions: higher = more signal
endpoint_label: composite z-score
Give the value as a plain number.

Quick note, composite z-score for Cc1cc(C)c(C(O)C2C=CC3C(=O)N(C)C(=O)C3N2Nc2ccccc2)c(C)c1 (configuration not stated) landed at 1.35

Quick note, composite z-score for Cc1ccc([C@H]2[C@H](C(=O)O)[C@H](Sc3ccccc3)[C@@H](C(C)C)N2S(=O)(=O)c2ccc(C)cc2)cc1 landed at 0.249

Quick note, composite z-score for COC(=O)[C@]1(Cc2ccccc2N=[N+]=[N-])N=C(c2ccc(OCCCO)cc2)O[C@@H]1c1ccccc1N=[N+]=[N-] landed at -0.0976

Quick note, composite z-score for COCC(=C=CC[C@@H](O)c1ccc(CO)o1)CCO landed at -0.215

Quick note, composite z-score for CN1C(=O)C2C(C1=O)C1C=C(CCCO)C2C(c2cccs2)N1C (configuration not stated) landed at -0.154

Quick note, composite z-score for C=CCOC(=O)[C@H]1[C@@H]2C(=O)O[C@@H](c3ccccc3)[C@@H](c3ccccc3)N2[C@@H](c2ccc(OCCOC(=O)[C@@H]3C[C@@H]4C(=O)NCC(=O)N4[C@@H]3c3ccc(O)cc3)cc2)[C@]12C(=O)Nc1ccccc12 landed at 0.0006

Quick note, composite z-score for CC(=O)NCCCC[C@@H]1NC(=O)[C@@H]2C[C@H](C(=O)NCCCCN(C)C)[C@H](c3ccc(O)cc3)N2C1=O landed at -0.292

Quick note, composite z-score for C=C(C(=O)CC[C@H](OC(C)=O)c1ccc(OCCO)cc1)C(C)C landed at 0.0569

Quick note, composite z-score for C[N+](C)(C)CCCCCCNC(=O)[C@H]1C[C@H]2C(=O)N3CCC[C@H]3C(=O)N2[C@H]1c1ccc(O)cc1 landed at 0.0039

Quick note, composite z-score for COCCOC(=O)N1C(=O)[C@@]2(c3cc(C#CCNC(N)=O)ccc31)[C@H](c1ccc(O)cc1)N1[C@H](c3ccccc3)[C@H](c3ccccc3)OC(=O)[C@H]1[C@@H]2C(=O)Nc1nc2ccccc2s1 landed at 0.111

Quick note, composite z-score for CCOC(=O)C1=C[C@@H](CC)N(S(=O)(=O)c2ccc(C)cc2)[C@H]1c1ccccc1 landed at 0.0539

Quick note, composite z-score for COC(=O)c1ccc(OC)c(/C=C\CC(OC(C)=O)c2ccccc2)c1 (configuration not stated) landed at -0.276

Quick note, composite z-score for CC(C)(C)OC(=O)CC[C@@]1(C(=O)O)N=C(c2ccc(OCCCO)cc2)O[C@@H]1c1ccccc1N=[N+]=[N-] landed at 0.39

Quick note, composite z-score for NCCCCCNC(=O)[C@H]1C[C@H]2C(=O)NCC(=O)N2[C@H]1c1cccc(OCCO)c1 landed at 0.204

Quick note, composite z-score for COCCOC(=O)N1C(=O)[C@@]2(c3cc(C#CCC(C(=O)OC)C(=O)OC)ccc31)[C@H](c1ccccc1OCCO)N1[C@H](c3ccccc3)[C@H](c3ccccc3)OC(=O)[C@H]1[C@@H]2C(N)=O landed at 0.173

Quick note, composite z-score for COC(=O)[C@@]1(Cc2ccccc2)[C@H]2c3cc(C(=O)N(C)C)n(Cc4c(-c5ccccc5)noc4C)c3C[C@H]2CN1C(=O)c1ccccc1 landed at 0.187

Quick note, composite z-score for O=C1OCC=C[C@H]2OC34C=CCN(c5ccc(Cl)cc5)C(=O)[C@H]3N(CCCCCCO)C(=O)[C@@H]4[C@@H]12 (some centres not stated) landed at -0.226

Quick note, composite z-score for O=C1O[C@H](c2ccccc2)[C@H](c2ccccc2)N2[C@H]1[C@@H](C(=O)Nc1nc3ccccc3s1)[C@]1(C(=O)Nc3ccccc31)[C@H]2c1ccc(O)cc1 landed at 0.156

Quick note, composite z-score for C=CCOC(=O)[C@@H]1[C@H]2C(=O)O[C@H](c3ccccc3)[C@H](c3ccccc3)N2[C@H](c2ccc(OCCOC(=O)[C@@H]3C[C@@H]4C(=O)NCC(=O)N4[C@@H]3c3cccc(OCCO)c3)cc2)[C@@]12C(=O)Nc1ccc(I)cc12 landed at -0.0835

Quick note, composite z-score for COC(=O)[C@@]1(Cc2ccc(OC)cc2)[C@H]2c3cc(C(=O)N4CCCC4)n(CCc4c[nH]c5cc(F)ccc45)c3C[C@H]2CN1C(=O)c1ccccc1 landed at 0.127

Quick note, composite z-score for COCCOC(=O)N1C(=O)[C@@]2(c3cc(C#CCNC(N)=O)ccc31)[C@H](c1ccc(O)cc1)N1[C@H](c3ccccc3)[C@H](c3ccccc3)OC(=O)[C@H]1[C@@H]2C(=O)NC[C@H](O)c1ccccc1 landed at 0.108

Quick note, composite z-score for COC(=O)c1ccc(C23CC2(C(NP(=O)(c2ccccc2)c2ccccc2)c2ccccc2)C3)cc1 (configuration not stated) landed at 0.325

Quick note, composite z-score for Cc1ccc(S[C@]2(C(=O)NCC(C)C)CC(=O)N(Cc3ccccc3Cl)[C@@H]2c2ccc(CO)cc2)cc1 landed at -0.312

Quick note, composite z-score for Cc1ccc([C@H]2C(C(=O)O)=C[C@@H](C)N2S(=O)(=O)c2ccc(C)cc2)cc1 landed at -0.0918

Quick note, composite z-score for CC(C)N1C(=O)c2ccccc2[C@@H](C(=O)NCCCN(C)C)[C@@H]1c1ccc(CO)cc1 landed at -0.15

Quick note, composite z-score for COc1ccc([Si](C)(C)[C@H]2[C@H](CC(=O)N(CCO)Cc3ccccc3)O[C@@]3(C(=O)N(Cc4cccc(N5CCC5=O)c4)c4ccccc43)[C@@H]2C)cc1 landed at -0.0802

Quick note, composite z-score for COCCOC(=O)N1C(=O)[C@@]2(c3cc(C#CCC(C(=O)OC)C(=O)OC)ccc31)[C@H](c1ccc(O)cc1)N1[C@H](c3ccccc3)[C@H](c3ccccc3)OC(=O)[C@H]1[C@@H]2C(N)=O landed at -0.0647
